system tested: Delta-type opioid receptor (Rattus norvegicus, UniProt P33533)
Sequence (P33533 whole entry): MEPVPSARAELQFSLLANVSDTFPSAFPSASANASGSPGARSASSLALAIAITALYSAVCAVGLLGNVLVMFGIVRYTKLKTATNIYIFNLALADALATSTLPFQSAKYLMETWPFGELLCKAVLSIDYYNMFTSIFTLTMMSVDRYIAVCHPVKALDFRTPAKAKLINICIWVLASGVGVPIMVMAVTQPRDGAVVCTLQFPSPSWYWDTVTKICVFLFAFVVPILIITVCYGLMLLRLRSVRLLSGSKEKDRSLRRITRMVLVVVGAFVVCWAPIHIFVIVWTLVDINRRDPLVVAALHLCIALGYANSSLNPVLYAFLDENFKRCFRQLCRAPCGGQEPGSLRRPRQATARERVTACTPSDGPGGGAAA
experiment: Displacement of [3H]DPDPE from rat cortex delta opioid receptor after 2.5 hrs by liquid scintillation counting analysis
Where a SMILES comes first, the peptide text is derived from it. [ ]: non-standard residue; d: D form. ξ: configuration not given here. Dmt = Cc1cc(O)cc(C)c1C[C@H](N)C(=O)O; ξTiq(1-COOH) = O=C(O)C1NCCc2ccccc21
assay endpoint: Ki

compound	system tested	measured value
NC(=O)C(Cc1ccc2ccccc2c1)NC(=O)[C@H](O)[C@H](Cc1ccccc1)NC(=O)[C@@H]1CCCN1C(=O)[C@@H](N)Cc1ccc(O)cc1 (stereo not given in full)	Delta-type opioid receptor (Rattus norvegicus, UniProt P33533)	757 nM
Cc1cc(O)cc(C)c1C[C@H](N)C(=O)N1CCc2ccccc2C1C(=O)N[C@@H](Cc1ccccc1)C(=O)N[C@@H](Cc1ccccc1)C(N)=O (stereo not given in full) (H-[Dmt][ξTiq(1-COOH)]FF-NH2)	Delta-type opioid receptor (Rattus norvegicus, UniProt P33533)	2 nM
NC(=O)[C@H](Cc1ccccc1)NC(=O)[C@@H](O)[C@@H](Cc1ccccc1)NC(=O)[C@@H]1CCCN1C(=O)[C@@H](N)Cc1ccc(O)cc1	Delta-type opioid receptor (Rattus norvegicus, UniProt P33533)	593 nM
NC(=O)[C@H](Cc1ccccc1)NC(=O)[C@H](O)[C@@H](Cc1ccccc1)NC(=O)[C@@H]1CCCN1C(=O)[C@@H](N)Cc1ccc(O)cc1	Delta-type opioid receptor (Rattus norvegicus, UniProt P33533)	1220 nM
Cc1cc(O)cc(C)c1C[C@H](N)C(=O)N1CCc2ccccc2C1C(=O)N[C@@H](Cc1ccccc1)C(=O)N[C@@H](Cc1ccccc1)[C@@H](O)C(N)=O (stereo not given in full)	Delta-type opioid receptor (Rattus norvegicus, UniProt P33533)	0.5 nM
